- assay target: VAV1 (Homo sapiens, UniProt P15498+Q96SW2)
- Construct: A heterozygous VAV1 C-terminal HiBiT knock-in pool was generated at Monte Rosa Therapeutics from a clonal Jurkat cell; endogenous in cells; host or cells: Jurkat clone stably expressing LgBiT, homozygous GSPT1-G575N; heterozygous VAV1-HiBiT knock-in pool
- assay procedure: VAV1 degradation activity, VAV1-HiBiT knock-in Jurkat luminescence assay (Example A, Table 1)
- Type: cell-based
- run conditions: Jurkat, VAV1-HiBiT knock-in Jurkat cells, luminescence read at 6 and 24 hours; read-out: VAV1 Dmax %, class
# Dmax listing for each entry below

| molecule | Dmax |
| --- | --- |
| O=C1CCC(c2cccc(-c3ccc(-n4cccc(CC(F)F)c4=O)cc3)c2Cl)C(=O)N1 (stereo not shown) [Compound 444] | > 90% |
| CN1CC2(CCC2)N(c2ccc(-c3cccc(C4CCC(=O)NC4=O)c3Cl)cc2)C1=O (stereo not shown) [Compound 341] | > 90% |
| O=C1CCC(c2c(F)ccc(-c3ccc(Cn4ccccc4=O)cc3)c2F)C(=O)N1 (stereo not shown) [Compound 147] | < 60% |
| O=C1CCC(c2cccc(-c3ccc(CCn4ccccc4=O)cc3)c2Cl)C(=O)N1 (stereo not shown) [Compound 182] | 60 to 90% |

Data credit: patent US12257247B2
